# TARGET_ENTITY: INSR (human) (UniProt P06213)
# Sequence (P06213 whole entry, looked up): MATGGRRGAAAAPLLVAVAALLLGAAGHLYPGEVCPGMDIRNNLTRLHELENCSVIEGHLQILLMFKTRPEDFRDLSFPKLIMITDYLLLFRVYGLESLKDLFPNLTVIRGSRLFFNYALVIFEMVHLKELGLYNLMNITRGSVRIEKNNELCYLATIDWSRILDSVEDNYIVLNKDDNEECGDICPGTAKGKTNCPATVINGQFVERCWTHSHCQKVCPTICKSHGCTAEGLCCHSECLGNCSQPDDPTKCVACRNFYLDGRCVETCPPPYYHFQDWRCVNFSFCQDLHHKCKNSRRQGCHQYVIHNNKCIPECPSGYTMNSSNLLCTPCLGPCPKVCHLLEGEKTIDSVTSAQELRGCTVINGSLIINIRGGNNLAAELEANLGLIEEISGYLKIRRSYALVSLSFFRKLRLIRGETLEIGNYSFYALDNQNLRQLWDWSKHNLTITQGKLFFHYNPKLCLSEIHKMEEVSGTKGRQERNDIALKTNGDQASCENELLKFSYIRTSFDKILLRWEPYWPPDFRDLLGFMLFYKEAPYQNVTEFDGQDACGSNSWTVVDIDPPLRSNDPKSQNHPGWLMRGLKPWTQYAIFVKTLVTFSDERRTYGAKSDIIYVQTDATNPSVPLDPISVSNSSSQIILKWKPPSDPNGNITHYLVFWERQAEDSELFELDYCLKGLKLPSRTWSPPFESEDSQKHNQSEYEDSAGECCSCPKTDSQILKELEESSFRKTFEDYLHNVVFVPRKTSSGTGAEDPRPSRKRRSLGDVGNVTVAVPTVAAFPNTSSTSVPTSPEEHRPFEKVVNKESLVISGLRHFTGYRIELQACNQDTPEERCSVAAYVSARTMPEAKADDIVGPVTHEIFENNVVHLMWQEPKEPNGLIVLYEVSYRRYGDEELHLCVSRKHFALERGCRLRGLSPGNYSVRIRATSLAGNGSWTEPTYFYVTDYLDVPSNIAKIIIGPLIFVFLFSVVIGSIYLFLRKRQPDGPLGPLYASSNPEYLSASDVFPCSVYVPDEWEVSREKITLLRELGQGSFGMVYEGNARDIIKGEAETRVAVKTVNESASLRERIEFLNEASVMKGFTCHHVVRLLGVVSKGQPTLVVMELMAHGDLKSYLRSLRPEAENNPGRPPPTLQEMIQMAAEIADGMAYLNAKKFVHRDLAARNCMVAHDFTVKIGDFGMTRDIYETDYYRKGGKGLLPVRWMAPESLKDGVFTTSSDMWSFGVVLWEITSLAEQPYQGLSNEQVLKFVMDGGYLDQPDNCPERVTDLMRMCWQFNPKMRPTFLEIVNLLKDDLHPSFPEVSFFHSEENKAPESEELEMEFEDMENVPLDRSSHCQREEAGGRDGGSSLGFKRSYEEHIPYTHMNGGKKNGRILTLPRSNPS
# ASSAY_PROTOCOL: radiometric filter-binding kinase assay
# CONDITION_SUMMARY: compound 100.0 µM; ATP 20 µM
inhibition: recorded values
Your answer is read as %, so omit the unit and give the number.

Worked cases, inhibition given:
INSERT INTO measurements (compound, target_entity, unit_spec, measured) VALUES
  ('O=c1c(NC(=S)NCc2ccccc2)cnc2[nH]ccn12', 'INSR (human) (UniProt P06213)', '%', 0),
  ('O=c1cc(-c2ccccc2F)nc2[nH]ccn12', 'INSR (human) (UniProt P06213)', '%', 6),
  ('CC(C)(C)Nc1c(C2CC2)nc2[nH]cnn12', 'INSR (human) (UniProt P06213)', '%', 0);

Turning to the following compound.
Any idea what inhibition was measured for CC1CN(c2nc3ccccn3c(=O)c2N)CC(C)O1 (centres undefined) ? 1

====

# TARGET_ENTITY: UniProt:P43405
# ASSAY_PROTOCOL: radiometric filter-binding kinase assay
# CONDITION_SUMMARY: compound 100.0 µM; ATP 20 µM
MEASURE: inhibition (%)
Your answer is read as %, so omit the unit and give the number.

INSERT INTO results (compound, measure, measured) VALUES
  ('O=c1c(NC(=S)NCc2ccccc2)cnc2[nH]ccn12', 'inhibition', 12),
  ('O=c1cc(-c2ccccc2F)nc2[nH]ccn12', 'inhibition', 20);

Hi! What's the reported inhibition for "O=C(Nc1cnc2[nH]ccn2c1=O)c1ccccc1" on UniProt:P43405? 22

Hi! What's the reported inhibition for "COc1ccc(NC(=S)Nc2cnc3[nH]cnn3c2=O)cn1" on UniProt:P43405? 9

Hi! What's the reported inhibition for "Nc1cnc2c(-c3c(F)cccc3F)cccn2c1=O" on UniProt:P43405? 30

Hi! What's the reported inhibition for "O=C(Nc1cnc2[nH]cnn2c1=O)c1ccccc1" on UniProt:P43405? 0

====

# TARGET_ENTITY: JAK2 JH1 JH2 (human) (UniProt O60674)
# ASSAY_PROTOCOL: radiometric filter-binding kinase assay
# CONDITION_SUMMARY: compound 100.0 µM; ATP 5 µM
MEASURE: inhibition (%)
Your answer is read as %, so omit the unit and give the number.

Worked cases, inhibition given:
INSERT INTO assay_data (compound, measure, measured) VALUES
  ('O=c1c(NC(=S)NCc2ccccc2)cnc2[nH]ccn12', 'inhibition', 0),
  ('O=C(Nc1cnc2[nH]cnn2c1=O)c1ccccc1', 'inhibition', 0),
  ('O=c1cc(-c2ccccc2F)nc2[nH]ccn12', 'inhibition', 25);

Turning to the following compound.
Any idea what inhibition was measured for "Nc1nc2cnc(-c3ccccc3)cn2n1" ? 76

====

# TARGET_ENTITY: UniProt:Q16584
# Sequence (Q16584 whole entry, looked up): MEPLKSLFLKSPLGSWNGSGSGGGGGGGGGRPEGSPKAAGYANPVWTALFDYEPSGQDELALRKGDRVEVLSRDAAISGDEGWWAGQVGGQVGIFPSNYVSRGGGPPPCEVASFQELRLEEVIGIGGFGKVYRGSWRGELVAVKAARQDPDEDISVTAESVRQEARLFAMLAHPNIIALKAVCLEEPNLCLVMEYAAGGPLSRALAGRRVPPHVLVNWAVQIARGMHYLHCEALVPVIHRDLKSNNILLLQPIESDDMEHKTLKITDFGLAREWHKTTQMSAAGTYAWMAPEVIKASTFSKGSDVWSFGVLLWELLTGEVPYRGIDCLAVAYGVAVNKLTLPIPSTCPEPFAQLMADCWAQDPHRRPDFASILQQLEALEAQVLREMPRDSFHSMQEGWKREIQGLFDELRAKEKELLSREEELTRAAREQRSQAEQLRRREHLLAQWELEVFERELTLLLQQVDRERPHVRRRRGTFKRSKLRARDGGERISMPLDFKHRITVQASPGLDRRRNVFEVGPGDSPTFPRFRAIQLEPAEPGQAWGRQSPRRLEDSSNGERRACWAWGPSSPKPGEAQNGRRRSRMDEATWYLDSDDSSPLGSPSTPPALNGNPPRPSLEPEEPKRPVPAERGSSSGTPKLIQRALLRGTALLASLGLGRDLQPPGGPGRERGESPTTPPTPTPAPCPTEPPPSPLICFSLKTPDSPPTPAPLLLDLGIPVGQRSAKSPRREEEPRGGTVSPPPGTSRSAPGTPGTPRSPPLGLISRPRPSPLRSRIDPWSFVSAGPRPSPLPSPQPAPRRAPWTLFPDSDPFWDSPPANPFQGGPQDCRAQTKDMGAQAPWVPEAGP
# ASSAY_PROTOCOL: radiometric filter-binding kinase assay
# CONDITION_SUMMARY: compound 100.0 µM; ATP 20 µM
MEASURE: inhibition

Worked cases, inhibition given:
INSERT INTO assay_data (compound, target_entity, measured) VALUES
  ('O=C(c1cccc(-c2cc3c(=O)[nH]cnc3s2)c1)N1CCOCC1', 'UniProt:Q16584', '23%'),
  ('Nc1cnc2c(-c3c(F)cccc3F)cccn2c1=O', 'UniProt:Q16584', '63%'),
  ('Nc1nc2cnc(-c3ccccc3)cn2n1', 'UniProt:Q16584', '89%'),
  ('COc1ccc(NC(=S)Nc2cnc3[nH]cnn3c2=O)cn1', 'UniProt:Q16584', '0%'),
  ('O=C(Nc1cnc2[nH]ccn2c1=O)c1ccccc1', 'UniProt:Q16584', '40%'),
  ('CC(=O)Nc1nc2cnc(-c3c(C)cccc3C)cn2n1', 'UniProt:Q16584', '0%');

Any idea what inhibition was measured for CC1CN(c2nc3ccccn3c(=O)c2N)CC(C)O1 (stereo not drawn) ? 0%

Any idea what inhibition was measured for "CC(C)(C)Nc1c(COCc2ccccc2)nc2[nH]cnn12" ? 0%

====

# TARGET_ENTITY: EEF2K (human) (UniProt O00418)
# Sequence (O00418 whole entry, looked up): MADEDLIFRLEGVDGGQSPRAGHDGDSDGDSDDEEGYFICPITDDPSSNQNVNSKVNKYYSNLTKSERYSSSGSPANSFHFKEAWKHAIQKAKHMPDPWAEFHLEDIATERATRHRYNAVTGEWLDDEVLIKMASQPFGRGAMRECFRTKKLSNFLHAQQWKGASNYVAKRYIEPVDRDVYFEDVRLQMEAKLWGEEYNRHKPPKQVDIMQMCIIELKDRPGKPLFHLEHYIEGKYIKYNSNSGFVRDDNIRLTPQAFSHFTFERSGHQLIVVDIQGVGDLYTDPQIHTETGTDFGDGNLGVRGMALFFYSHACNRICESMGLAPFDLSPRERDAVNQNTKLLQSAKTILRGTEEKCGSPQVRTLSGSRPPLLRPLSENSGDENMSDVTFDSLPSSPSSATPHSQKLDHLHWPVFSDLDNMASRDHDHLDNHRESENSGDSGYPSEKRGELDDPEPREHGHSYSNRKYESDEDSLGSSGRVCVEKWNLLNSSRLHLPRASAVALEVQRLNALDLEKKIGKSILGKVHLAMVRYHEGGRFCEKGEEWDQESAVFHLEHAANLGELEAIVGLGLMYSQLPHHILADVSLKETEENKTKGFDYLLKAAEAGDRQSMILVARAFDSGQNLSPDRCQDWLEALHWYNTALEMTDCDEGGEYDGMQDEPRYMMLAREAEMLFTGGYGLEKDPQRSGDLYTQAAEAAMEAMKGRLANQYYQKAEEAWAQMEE
# ASSAY_PROTOCOL: radiometric filter-binding kinase assay
# CONDITION_SUMMARY: compound 100.0 µM; ATP 5 µM
Record T whenever inhibition is at 20% or higher; record F when lower.

For orientation, consider the following solved cases.
INSERT INTO assay_data (molecule, group_label) VALUES
  ('Nc1nc2cnc(-c3ccccc3)cn2n1', 'T'),
  ('CC(C)(C)Nc1c(C2CC2)nc2[nH]cnn12', 'F'),
  ('CC1CN(c2nc3ccccn3c(=O)c2N)CC(C)O1 (stereo not given)', 'T'),
  ('O=C(Nc1cnc2[nH]cnn2c1=O)c1ccccc1', 'F');

For this molecule, is measured inhibition 20% or higher? "Cc1cccc(C)c1-c1cn2nc(N)nc2cn1" F

====

# TARGET_ENTITY: PLK1 (human) (UniProt P53350)
# Sequence (P53350 whole entry, looked up): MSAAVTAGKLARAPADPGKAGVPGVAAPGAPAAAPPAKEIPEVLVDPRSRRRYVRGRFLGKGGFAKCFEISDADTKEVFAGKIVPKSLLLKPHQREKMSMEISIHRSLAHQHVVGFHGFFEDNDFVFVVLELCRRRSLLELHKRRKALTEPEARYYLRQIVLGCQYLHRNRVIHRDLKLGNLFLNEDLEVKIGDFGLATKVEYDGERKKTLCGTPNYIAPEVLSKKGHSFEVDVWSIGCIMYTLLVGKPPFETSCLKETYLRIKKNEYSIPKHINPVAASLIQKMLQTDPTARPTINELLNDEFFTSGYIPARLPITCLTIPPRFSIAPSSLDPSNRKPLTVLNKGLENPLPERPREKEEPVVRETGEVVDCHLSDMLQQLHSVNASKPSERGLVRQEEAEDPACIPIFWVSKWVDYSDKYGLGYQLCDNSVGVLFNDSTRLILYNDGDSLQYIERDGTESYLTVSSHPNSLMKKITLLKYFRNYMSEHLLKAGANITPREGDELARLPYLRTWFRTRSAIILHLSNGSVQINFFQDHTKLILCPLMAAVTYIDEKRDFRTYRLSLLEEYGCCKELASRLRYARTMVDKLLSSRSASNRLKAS
# ASSAY_PROTOCOL: radiometric filter-binding kinase assay
# CONDITION_SUMMARY: compound 100.0 µM; ATP 5 µM
MEASURE: inhibition (%)
Your answer is read as %, so omit the unit and give the number.

Worked cases, inhibition given:
INSERT INTO results (compound, unit_spec, measured) VALUES
  ('O=C(Nc1cnc2[nH]cnn2c1=O)c1ccccc1', '%', 0),
  ('Cc1cccc(C)c1-c1cn2nc(N)nc2cn1', '%', 8),
  ('O=c1cc(-c2ccccc2F)nc2[nH]ccn12', '%', 8);

Turning to the following compound.
Any idea what inhibition was measured for "O=c1c(NC(=S)NCc2ccccc2)cnc2[nH]ccn12" ? 0

====

inhibition: recorded values
# TARGET_ENTITY: MAP2K2 (human) (UniProt P36507)
# Sequence (P36507 whole entry, looked up): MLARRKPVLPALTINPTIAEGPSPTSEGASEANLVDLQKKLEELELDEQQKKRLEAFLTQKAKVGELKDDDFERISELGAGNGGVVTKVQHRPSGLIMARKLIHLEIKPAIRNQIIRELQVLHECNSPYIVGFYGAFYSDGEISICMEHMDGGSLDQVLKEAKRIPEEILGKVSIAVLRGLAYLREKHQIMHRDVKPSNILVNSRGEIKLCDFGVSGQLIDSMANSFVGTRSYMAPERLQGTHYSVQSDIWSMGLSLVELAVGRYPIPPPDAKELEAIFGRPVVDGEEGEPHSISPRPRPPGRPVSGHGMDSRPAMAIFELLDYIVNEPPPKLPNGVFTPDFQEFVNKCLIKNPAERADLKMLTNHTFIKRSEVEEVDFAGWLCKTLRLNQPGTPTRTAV
# ASSAY_PROTOCOL: radiometric filter-binding kinase assay
# CONDITION_SUMMARY: compound 100.0 µM; ATP 5 µM
Your answer is read as %, so omit the unit and give the number.

Worked cases, inhibition given:
INSERT INTO measurements (compound, unit_spec, measured) VALUES
  ('CC(C)(C)Nc1c(COCc2ccccc2)nc2[nH]cnn12', '%', 11),
  ('O=c1cc(-c2ccccc2F)nc2[nH]ccn12', '%', 18),
  ('O=c1c(NC(=S)NCc2ccccc2)cnc2[nH]ccn12', '%', 0),
  ('Nc1cnc2c(-c3c(F)cccc3F)cccn2c1=O', '%', 71),
  ('CC1CN(c2nc3ccccn3c(=O)c2N)CC(C)O1 (centres undefined)', '%', 0);

Any idea what inhibition was measured for "O=C(Nc1cnc2[nH]cnn2c1=O)c1ccccc1" ? 0

Any idea what inhibition was measured for "COc1ccc(-c2cc3c(=O)[nH]cnc3s2)cc1OC" ? 0

Any idea what inhibition was measured for "O=C(Nc1cnc2[nH]ccn2c1=O)c1ccccc1" ? 0

Any idea what inhibition was measured for "Nc1nc2cnc(-c3ccccc3)cn2n1" ? 35

Any idea what inhibition was measured for "CC(=O)Nc1nc2cnc(-c3ccccc3)cn2n1" ? 6

Any idea what inhibition was measured for "COc1ccc(NC(=S)Nc2cnc3[nH]cnn3c2=O)cn1" ? 0

Any idea what inhibition was measured for "O=C(c1cccc(-c2cc3c(=O)[nH]cnc3s2)c1)N1CCOCC1" ? 8

Any idea what inhibition was measured for "CC(C)(C)Nc1c(C2CC2)nc2[nH]cnn12" ? 0

Any idea what inhibition was measured for "Cc1cccc(C)c1-c1cn2nc(N)nc2cn1" ? 28

====

# TARGET_ENTITY: MAPK3 (human) (UniProt P27361)
# ASSAY_PROTOCOL: radiometric filter-binding kinase assay
# CONDITION_SUMMARY: compound 100.0 µM; ATP 5 µM
MEASURE: inhibition
A complete answer gives the number and then names the unit.

Worked cases, inhibition given:
INSERT INTO measurements (compound, measure, measured) VALUES
  ('O=C(c1cccc(-c2cc3c(=O)[nH]cnc3s2)c1)N1CCOCC1', 'inhibition', '19%'),
  ('O=c1c(NC(=S)NCc2ccccc2)cnc2[nH]ccn12', 'inhibition', '7%'),
  ('CC1CN(c2nc3ccccn3c(=O)c2N)CC(C)O1 (configuration not stated)', 'inhibition', '0%');

Any idea what inhibition was measured for "Nc1cnc2c(-c3c(F)cccc3F)cccn2c1=O" ? 23%

Any idea what inhibition was measured for "Cc1cccc(C)c1-c1cn2nc(N)nc2cn1" ? 31%

Any idea what inhibition was measured for "O=C(Nc1cnc2[nH]cnn2c1=O)c1ccccc1" ? 13%

Any idea what inhibition was measured for "O=c1cc(-c2ccccc2F)nc2[nH]ccn12" ? 3%

====

# TARGET_ENTITY: EPHB3 (human) (UniProt P54753)
# Sequence (P54753 whole entry, looked up): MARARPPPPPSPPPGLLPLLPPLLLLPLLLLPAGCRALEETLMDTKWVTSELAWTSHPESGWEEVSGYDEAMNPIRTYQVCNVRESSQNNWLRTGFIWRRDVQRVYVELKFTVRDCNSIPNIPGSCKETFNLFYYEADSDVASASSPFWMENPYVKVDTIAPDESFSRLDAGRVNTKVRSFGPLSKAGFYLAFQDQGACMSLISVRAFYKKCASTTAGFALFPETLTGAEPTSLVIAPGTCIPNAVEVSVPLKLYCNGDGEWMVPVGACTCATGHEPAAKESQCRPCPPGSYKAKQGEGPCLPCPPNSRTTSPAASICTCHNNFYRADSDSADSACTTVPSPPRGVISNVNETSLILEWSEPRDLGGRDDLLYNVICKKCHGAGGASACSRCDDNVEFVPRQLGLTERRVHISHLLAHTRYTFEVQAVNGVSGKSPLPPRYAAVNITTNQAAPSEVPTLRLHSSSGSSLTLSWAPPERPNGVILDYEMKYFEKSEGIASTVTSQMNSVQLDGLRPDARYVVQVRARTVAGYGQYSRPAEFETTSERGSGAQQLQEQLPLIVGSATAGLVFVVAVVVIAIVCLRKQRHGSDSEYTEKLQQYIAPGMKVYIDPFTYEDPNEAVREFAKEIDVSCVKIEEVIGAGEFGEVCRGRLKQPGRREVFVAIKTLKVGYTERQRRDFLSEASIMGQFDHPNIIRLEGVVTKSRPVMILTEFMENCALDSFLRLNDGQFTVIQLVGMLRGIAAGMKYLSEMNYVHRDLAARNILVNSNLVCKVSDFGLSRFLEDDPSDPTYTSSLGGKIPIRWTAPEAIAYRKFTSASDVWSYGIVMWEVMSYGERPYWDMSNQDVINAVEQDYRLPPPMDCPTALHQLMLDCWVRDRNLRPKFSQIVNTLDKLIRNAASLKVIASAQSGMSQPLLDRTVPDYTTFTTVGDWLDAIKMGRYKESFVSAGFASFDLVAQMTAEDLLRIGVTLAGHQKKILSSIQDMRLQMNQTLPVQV
# ASSAY_PROTOCOL: radiometric filter-binding kinase assay
# CONDITION_SUMMARY: compound 100.0 µM; ATP 20 µM
Record 1 whenever inhibition is at 8% or higher; record 0 when lower.

For this compound, is measured inhibition 8% or higher? "CC(=O)Nc1nc2cnc(-c3ccccc3)cn2n1" 1
